Source: PubChem BioAssay

Task for the reader: assign each of the following compounds its reported inhibition.
assay: inhibitors of Sendai virus-induced IRF3 signaling, primary screen, TLR/RLR signaling modifier project, cell-based, Sendai virus stimulus, luciferase, 10K MLSCN set (AID 602276); details: HEK293 RL24 IRF3 luciferase reporter, at 10 µM, stronger effect = higher value;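 note: firefly luciferase from ISG56 promoter only with Renilla not read in this screen; 0% = Sendai virus plus DMSO and 100% = medium plus DMSO without virus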
Give bare numbers, in %.

Sample answers from the record:
[[record]]
compound = "CC(=O)Nc1sc2c(c1CN1CCN(c3ccccn3)CC1)CCCC2"
parameter_measured = "inhibition"
obs_value = 6.55

[[record]]
compound = "Cc1ccc(C)c(NC(=O)CC(NCCCN2CCOCC2)C(=O)O)c1 (configuration not stated)"
parameter_measured = "inhibition"
obs_value = 19.6

[[record]]
compound = "CC(=O)Nc1cccc(Oc2nc(C)cc(C)c2C#N)c1"
parameter_measured = "inhibition"
obs_value = 2.68

[[record]]
compound = "Cc1cc(C)cc(C(=O)N2CCC(C(N)=O)CC2)c1"
parameter_measured = "inhibition"
obs_value = 13.6

[[record]]
compound = "Cc1ccc(NC(=O)CCC(=O)O)cc1F"
parameter_measured = "inhibition"
obs_value = 16.4


List inhibition for every entry below, keeping the order given.
1. COc1cccc(-c2cc(C(F)(F)F)n3ncc(C(=O)O)c3n2)c1
2. C/C(N)=C(/C#N)C(=O)COC(=O)CCSc1ccccc1
3. CCOc1cc2[nH]c(=O)n(CCC(=O)NCCc3ccc(OC)c(OC)c3)c(=O)c2cc1OCC
4. O=C(COc1ccc(F)cc1Br)N1CCc2ccccc21
5. CCOC(=O)c1cc(-c2ccc(N)cc2)sc1N
6. CCOC(=O)C(C)(C)Sc1nc2c(cnn2-c2ccc(Cl)cc2)c(=O)[nH]1

A.
[11, 13.7, 8.69, -38, -50.5, 9.09]
